# Test system: L1210 leukemia ip in BDF1 mice, survival T/C
# PROTOCOL_SUMMARY: NCI In Vivo Anticancer Drug Screen. Data for tumor model L1210 Leukemia (intraperitoneal) in B6D2F1 (BDF1) mice
# TEST_CONDITIONS: endpoint: mean survival time; dose: 200.0 mg/kg/injection; schedule: Q04DX003 (ip); vehicle: saline with Tween-80; higher = longer survival
Toxic doses and inconclusive results are not listed.
Quick reference for T/C among some molecules
OBSERVABLE: T/C

{"MOLECULE": "C/C(=N/C(=O)NN)c1ccc(Cl)cc1", "READOUT_VALUE": "98 % of control"}
{"MOLECULE": "CC(N)CSC(=O)c1ccccc1 (configuration not stated)", "READOUT_VALUE": "100 % of control"}
{"MOLECULE": "Oc1c(CN2CCOCC2)cc(CN2CCOCC2)cc1CN1CCOCC1", "READOUT_VALUE": "95 % of control"}
{"MOLECULE": "Nc1c(Br)cc2c(c1Br)Cc1cc([N+](=O)[O-])ccc1-2", "READOUT_VALUE": "103 % of control"}
{"MOLECULE": "Nc1ncnc2c1ncn2CCCN1C(=O)c2ccccc2C1=O", "READOUT_VALUE": "93 % of control"}
{"MOLECULE": "C=C(C(=O)c1ccccc1)C(O)c1ccccc1 (configuration not stated)", "READOUT_VALUE": "100 % of control"}
{"MOLECULE": "O=COC1CC2CC1C1CCCC21 (configuration not stated)", "READOUT_VALUE": "92 % of control"}
